- System: E.cloacae C4009
- method-summary: In vitro antibacterial activity, minimum inhibitory concentration
- Format: cell-based
- condition-parameters: Enterobacter cloacae; E.cloacae C4009; read-out: Minimum Inhibitory Concentration (MIC)
Each entry below carries its recorded MIC.
Field format: number, assumed µg/mL, no unit text.

Nc1nc(/C(=N/OCC(=O)O)C(=O)N[C@@H]2C(=O)N3C(C(=O)[O-])=C(C[n+]4ccc5[nH]c(=O)[nH]c5c4)CS[C@H]23)ns1 ... 0.013
CO/N=C(\C(=O)N[C@@H]1C(=O)N2C(C(=O)[O-])=C(C[n+]3ccc4[nH]c(=NC#N)[nH]c4c3)CS[C@H]12)c1csc(N)n1 ... 0.025
Nc1nc(/C(=N/OCF)C(=O)N[C@@H]2C(=O)N3C(C(=O)[O-])=C(C[n+]4ccc5[nH]c(=O)[nH]c5c4)CS[C@H]23)ns1 ... 0.013
CO/N=C(\C(=O)N[C@@H]1C(=O)N2C(C(=O)[O-])=C(C[n+]3ccc4c(c3)NC(=C[N+](=O)[O-])N4)CS[C@H]12)c1nsc(N)n1 ... 0.2
CO/N=C(\C(=O)N[C@@H]1C(=O)N2C(C(=O)[O-])=C(C[n+]3ccc4c(c3)NC(=C[N+](=O)[O-])N4)CS[C@H]12)c1csc(N)n1 ... 0.2

[Q] Look up MIC: CO/N=C(\C(=O)N[C@@H]1C(=O)N2C(C(=O)O)=C(COC(C)=O)CS[C@H]12)c1csc(N)n1 [CTX, Cefotaxime, reference compound]
[A] 0.1

[Q] // MIC lookup, key: Nc1nc(/C(=N/O)C(=O)N[C@@H]2C(=O)N3C(C(=O)[O-])=C(C[n+]4ccc5[nH]c(=O)[nH]c5c4)CS[C@H]23)ns1
[A] 0.1

[Q] Fill blank: measured MIC of the compound CO/N=C(\C(=O)N[C@@H]1C(=O)N2C(C(=O)[O-])=C(C[n+]3ccc4[nH]c(=O)[nH]c4c3)CS[C@H]12)c1nsc(N)n1 is ____.
[A] 0.007

* * *

Parameter half-life: see the listing below.
- method-summary: Pharmacokinetics (plasma half-life)
- Format: in vivo
- condition-parameters: SD Rat, mean value, read-out: Half-Life (T1/2)

CO/N=C(\C(=O)N[C@@H]1C(=O)N2C(C(=O)[O-])=C(C[n+]3cccc4c3CCC4)CS[C@H]12)c1csc(N)n1 [CPR, Cefpirome, reference compound] ... 19.5 min

Attention now turns to another entry.
[Q] What does the record list as half-life for CO/N=C(\C(=O)N[C@@H]1C(=O)N2C(C(=O)[O-])=C(C[n+]3ccc4[nH]c(=O)[nH]c4c3)CS[C@H]12)c1nsc(N)n1 [Ex. 5] ?
[A] 24 min

* * *

The following compounds are shown together with reported MIC values.
- Tested on: S.marcescens C1052
- method-summary: In vitro antibacterial activity, minimum inhibitory concentration
- Assay type: cell-based
- condition-parameters: Serratia marcescens; S.marcescens C1052; read-out: Minimum Inhibitory Concentration (MIC)

Example cases with answers are listed next.
CO/N=C(\C(=O)N[C@@H]1C(=O)N2C(C(=O)O)=C(COC(C)=O)CS[C@H]12)c1csc(N)n1 [CTX, Cefotaxime, reference compound] ... 0.2 µg/mL
Nc1nc(/C(=N/OCF)C(=O)N[C@@H]2C(=O)N3C(C(=O)[O-])=C(C[n+]4ccc5[nH]c(=O)[nH]c5c4)CS[C@H]23)ns1 ... 0.004 µg/mL
Nc1nc(/C(=N/OCC(=O)O)C(=O)N[C@@H]2C(=O)N3C(C(=O)[O-])=C(C[n+]4ccc5[nH]c(=O)[nH]c5c4)CS[C@H]23)ns1 ... 0.2 µg/mL
CO/N=C(\C(=O)N[C@@H]1C(=O)N2C(C(=O)[O-])=C(C[n+]3ccc4c(c3)[nH]c(=O)n4C)CS[C@H]12)c1nsc(N)n1 ... 0.05 µg/mL
CO/N=C(\C(=O)N[C@@H]1C(=O)N2C(C(=O)[O-])=C(C[n+]3ccc4[nH]c(=NC#N)[nH]c4c3)CS[C@H]12)c1csc(N)n1 ... 0.05 µg/mL
CO/N=C(\C(=O)N[C@@H]1C(=O)N2C(C(=O)[O-])=C(C[n+]3cccc4c3CCC4)CS[C@H]12)c1csc(N)n1 [CPR, Cefpirome, reference compound] ... 0.05 µg/mL

[Q] Please report the recorded MIC for CO/N=C(\C(=O)N[C@@H]1C(=O)N2C(C(=O)[O-])=C(C[n+]3ccc4c(c3)NC(=C[N+](=O)[O-])N4)CS[C@H]12)c1nsc(N)n1 .
[A] 0.2 µg/mL

[Q] Fill in the blank: the reported MIC of CO/N=C(\C(=O)N[C@@H]1C(=O)N2C(C(=O)[O-])=C(C[n+]3ccc4[nH]c(=NC#N)[nH]c4c3)CS[C@H]12)c1nsc(N)n1 is ____.
[A] 0.05 µg/mL

[Q] Consider the compound Nc1nc(/C(=N/O)C(=O)N[C@@H]2C(=O)N3C(C(=O)[O-])=C(C[n+]4ccc5[nH]c(=O)[nH]c5c4)CS[C@H]23)ns1 and give its measured MIC.
[A] 0.2 µg/mL

[Q] Could you tell me which MIC is on file for CO/N=C(\C(=O)N[C@@H]1C(=O)N2C(C(=O)[O-])=C(C[n+]3ccc4[nH]c(=O)[nH]c4c3)CS[C@H]12)c1nsc(N)n1 ?
[A] 0.025 µg/mL

[Q] Query: MIC; subject: CO/N=C(\C(=O)N[C@@H]1C(=O)N2C(C(=O)[O-])=C(C[n+]3ccc4c(c3)NC(=C[N+](=O)[O-])N4)CS[C@H]12)c1csc(N)n1
[A] 0.2 µg/mL

* * *

- Test system: K.pneumoniae ATCC10031
- method-summary: In vitro antibacterial activity, minimum inhibitory concentration
- Format: cell-based
- condition-parameters: Klebsiella pneumoniae; K.pneumoniae ATCC10031; read-out: Minimum Inhibitory Concentration (MIC)
- Text: As reference compounds, Cefotaxime (CTX), Ceftazidime (CAZ) and Cefpirome (CPR) were employed.
endpoint: MIC (µg/mL)
Kindly answer with a numeric value in µg/mL, unit omitted.

Nc1nc(/C(=N/OCC(=O)O)C(=O)N[C@@H]2C(=O)N3C(C(=O)[O-])=C(C[n+]4ccc5[nH]c(=O)[nH]c5c4)CS[C@H]23)ns1 ... 0.013
Nc1nc(/C(=N/OCF)C(=O)N[C@@H]2C(=O)N3C(C(=O)[O-])=C(C[n+]4ccc5[nH]c(=O)[nH]c5c4)CS[C@H]23)ns1 ... 0.002
Nc1nc(/C(=N/O)C(=O)N[C@@H]2C(=O)N3C(C(=O)[O-])=C(C[n+]4ccc5[nH]c(=O)[nH]c5c4)CS[C@H]23)ns1 ... 0.025

[Q] Look up MIC: CO/N=C(\C(=O)N[C@@H]1C(=O)N2C(C(=O)O)=C(COC(C)=O)CS[C@H]12)c1csc(N)n1 [CTX, Cefotaxime, reference compound]
[A] 0.002

[Q] Look at this molecule and give its reported MIC. CO/N=C(\C(=O)N[C@@H]1C(=O)N2C(C(=O)[O-])=C(C[n+]3ccc4[nH]c(=NC#N)[nH]c4c3)CS[C@H]12)c1nsc(N)n1
[A] 0.013

* * *

- Test system: P.aeruginosa ATCC10145
- method-summary: In vitro antibacterial activity, minimum inhibitory concentration
- Assay type: cell-based
- condition-parameters: Pseudomonas aeruginosa; P.aeruginosa ATCC10145; read-out: Minimum Inhibitory Concentration (MIC)
Entries and their MIC
# unit: µg/mL | format: bare number

Recorded MIC, per entry:
CO/N=C(\C(=O)N[C@@H]1C(=O)N2C(C(=O)[O-])=C(C[n+]3cccc4c3CCC4)CS[C@H]12)c1csc(N)n1 [CPR, Cefpirome, reference compound] ... 6.25
CO/N=C(\C(=O)N[C@@H]1C(=O)N2C(C(=O)[O-])=C(C[n+]3ccc4c(c3)NC(=C[N+](=O)[O-])N4)CS[C@H]12)c1nsc(N)n1 [Ex. 2] ... 50
CO/N=C(\C(=O)N[C@@H]1C(=O)N2C(C(=O)[O-])=C(C[n+]3ccc4[nH]c(=O)[nH]c4c3)CS[C@H]12)c1nsc(N)n1 [Ex. 5] ... 1.56
CO/N=C(\C(=O)N[C@@H]1C(=O)N2C(C(=O)[O-])=C(C[n+]3ccc4[nH]c(=NC#N)[nH]c4c3)CS[C@H]12)c1nsc(N)n1 [Ex. 4] ... 12.5

Turning now to a further record.
[Q] Param readout = MIC; param system = P.aeruginosa ATCC10145; param query = CO/N=C(\C(=O)N[C@@H]1C(=O)N2C(C(=O)[O-])=C(C[n+]3ccc4c(c3)[nH]c(=O)n4C)CS[C@H]12)c1nsc(N)n1 [Ex. 6] ; response: value
[A] 1.56

* * *

Catalogue of compounds with associated MIC
- System: P.aeruginosa C2027
- method-summary: In vitro antibacterial activity, minimum inhibitory concentration
- Assay type: cell-based
- condition-parameters: Pseudomonas aeruginosa; P.aeruginosa C2027; read-out: Minimum Inhibitory Concentration (MIC)
Express your answer in µg/mL, writing the number without its unit.

Past entries and their recorded results:
CO/N=C(\C(=O)N[C@@H]1C(=O)N2C(C(=O)[O-])=C(C[n+]3ccc4[nH]c(=O)[nH]c4c3)CS[C@H]12)c1nsc(N)n1 [Ex. 5] ... 0.78
CO/N=C(\C(=O)N[C@@H]1C(=O)N2C(C(=O)[O-])=C(C[n+]3ccc4c(c3)NC(=C[N+](=O)[O-])N4)CS[C@H]12)c1nsc(N)n1 [Ex. 2] ... 6.25
CO/N=C(\C(=O)N[C@@H]1C(=O)N2C(C(=O)O)=C(COC(C)=O)CS[C@H]12)c1csc(N)n1 [CTX, Cefotaxime, reference compound] ... 3.13
CO/N=C(\C(=O)N[C@@H]1C(=O)N2C(C(=O)[O-])=C(C[n+]3ccc4c(c3)NC(=C[N+](=O)[O-])N4)CS[C@H]12)c1csc(N)n1 [Ex. 1] ... 6.25

[Q] Could you share which MIC value was measured for CO/N=C(\C(=O)N[C@@H]1C(=O)N2C(C(=O)[O-])=C(C[n+]3ccc4[nH]c(=NC#N)[nH]c4c3)CS[C@H]12)c1csc(N)n1 [Ex. 3] ?
[A] 6.25

[Q] Which MIC value belongs to CO/N=C(\C(=O)N[C@@H]1C(=O)N2C(C(=O)[O-])=C(C[n+]3ccc4[nH]c(=NC#N)[nH]c4c3)CS[C@H]12)c1nsc(N)n1 [Ex. 4] ?
[A] 6.25

[Q] Using the record for Nc1nc(/C(=N/OCC(=O)O)C(=O)N[C@@H]2C(=O)N3C(C(=O)[O-])=C(C[n+]4ccc5[nH]c(=O)[nH]c5c4)CS[C@H]23)ns1 [Ex. 8] , report its MIC.
[A] 3.13

From: patent US5389627A
